procedureText: Stability in human plasma
Type: in vitro ADME
assayConditions: pH 7.8; 2 μM peptidomimetic, pooled human plasma, 37° C.; read-out: half-life (t1/2) when incubated with human plasma
propertyName: half-life at 2 μM (h)
Hi! Could you send only the number? It should be in h, unit omitted.

CCc1cc(OC)ccc1-c1ccc(CC(NC(=O)[C@H](CC(=O)O)NC(=O)[C@H](CO)NC(=O)[C@@H](NC(=O)C(C)(Cc2ccccc2F)NC(=O)[C@@H](NC(=O)CNC(=O)C(CCC#N)NC(=O)C(C)(C)NC(=O)[C@@H](N)Cc2c[nH]cn2)[C@H](C)O)[C@H](C)O)C(=S)NC(CCCc2ccccc2F)C(N)=O)cc1 (single isomer, unassigned)    8

Query string: Complete the entry with half-life at 2 μM for CCc1cc(OC)ccc1-c1ccc(CC(NC(=O)[C@H](CC(=O)O)NC(=O)[C@H](CO)NC(=O)[C@@H](NC(=O)[C@H](Cc2ccccc2)NC(=O)[C@@H](NC(=O)CNC(=O)[C@H](CCC(N)=O)NC(=O)C(C)(C)NC(=O)[C@@H](N)Cc2c[nH]cn2)[C@@H](C)O)[C@@H](C)O)C(=O)NC(CCCc2cccc(Cl)c2)C(N)=O)cc1 (single isomer, unassigned)
Result string: 8

###

// blood glucose levels lookup, one value per entry
System: C57BL/6J mice (mild hyperglycemic)
procedureText: In vivo glucose reduction, acute single dose 120-min time-course, i.p. route
Parameters: species or system mouse; unit not given here
assayConditions: male C57BL/6J mice, 50 nM/kg i.p., 60 min
Answer using only a numeral; do not append any unit.

Some entries whose results are on file:
CCc1cc(OC)ccc1-c1ccc(CC(NC(=O)[C@H](CC(=O)O)NC(=O)[C@H](CO)NC(=O)[C@@H](NC(=O)C(C)(Cc2ccccc2F)NC(=O)[C@@H](NC(=O)CNC(=O)C(CCC#N)NC(=O)C(C)(C)NC(=O)[C@@H](N)Cc2c[nH]cn2)[C@H](C)O)[C@H](C)O)C(=O)NC(CCCc2ccccc2F)C(N)=O)cc1 (single isomer, unassigned) [Seq. ID. 116]    128
CCc1cc(OC)ccc1-c1ccc(CC(CNC(CCCc2ccccc2)C(N)=O)NC[C@H](CC(=O)O)NC(=O)[C@H](CO)NC(=O)[C@@H](NC(=O)C(C)(Cc2ccccc2F)NC(=O)[C@@H](NC(=O)CNC(=O)C(CCC#N)NC(=O)C(C)(C)NC(=O)[C@@H](N)Cc2c[nH]cn2)[C@H](C)O)[C@H](C)O)cc1 (single isomer, unassigned) [Seq. ID. 202]    130

Query string: Complete the entry with blood glucose levels for CCc1cc(OC)ccc1-c1ccc(CC(CNC(CCCc2ccccc2)C(N)=O)NC[C@H](CC(=O)O)NC(=O)[C@H](CO)NC(=O)[C@@H](NC(=O)C(C)(Cc2ccccc2F)NC(=O)[C@@H](NC(=O)CNC(=O)[C@H](CCC(N)=O)NC(=O)C(C)(C)NC(=O)[C@H](Cc2c[nH]cn2)NC(=O)OC)[C@H](C)O)[C@H](C)O)cc1 (single isomer, unassigned) [Seq. ID. 198]
Result string: 113

###

procedureText: Stability in simulated gastric fluid
Assay type: in vitro ADME
assayConditions: 2 μM peptidomimetic, simulated gastric fluid pH 1.5, 37° C.
propertyName: half-life (t1/2) when incubated with simulated gastric fluid

CCc1cc(OC)ccc1-c1ccc(CC(NC(=O)[C@H](CC(=O)O)NC(=O)[C@H](CO)NC(=O)[C@@H](NC(=O)[C@H](Cc2ccccc2)NC(=O)[C@@H](NC(=O)CNC(=O)[C@H](CCC(N)=O)NC(=O)[C@H](C)NC(=O)[C@@H](N)Cc2c[nH]cn2)[C@@H](C)O)[C@@H](C)O)C(=O)NC(CCCc2ccc(Cl)cc2C)C(N)=O)cc1 (single isomer, unassigned)    (8) h
CCc1cc(OC)ccc1-c1ccc(CC(NC(=O)[C@H](CC(=O)O)NC(=O)[C@H](CO)NC(=O)[C@@H](NC(=O)[C@H](Cc2ccccc2)NC(=O)[C@@H](NC(=O)CNC(=O)[C@H](CCC(N)=O)NC(=O)[C@H](CO)NC(=O)[C@@H](N)Cc2c[nH]cn2)[C@@H](C)O)[C@@H](C)O)C(=O)NC(CCCc2ccccc2C(F)(F)F)C(N)=O)cc1 (single isomer, unassigned)    (8) h
CCc1cc(OC)ccc1-c1ccc(CC(C(=O)N(C)C(CCCc2ccccc2F)C(N)=O)N(C)C(=O)[C@H](CC(=O)O)N(C)C(=O)[C@H](CO)NC(=O)[C@@H](NC(=O)C(C)(Cc2ccccc2F)NC(=O)[C@@H](NC(=O)CNC(=O)C(CCC#N)NC(=O)C(C)(C)NC(=O)[C@@H](N)Cc2c[nH]cn2)[C@H](C)O)[C@H](C)O)cc1 (single isomer, unassigned)    (8) h

###

// half-life at 2 μM lookup, one value per entry
procedureText: Stability in simulated intestinal fluid
Type: in vitro ADME
assayConditions: 2 μM peptidomimetic, simulated intestinal fluid pH 7.5, 37° C.; read-out: half-life (t1/2) when incubated with simulated intestinal fluid
Non-standard residues stand in square brackets, D forms with d. Residues, ends and D or L forms follow the SMILES beside them. ξ: configuration not given here. *: point of attachment. Leu(5,5,5,5',5',5'-F6) = N[C@@H](CC(C(F)(F)F)C(F)(F)F)C(=O)O; X4 = CCc1cc(OC)ccc1-c1ccc(CC(CNC(CCCc2ccccc2F)C(N)=O)N*)cc1; ξαMePhe(2-F) = CC(N)(Cc1ccccc1F)C(=O)O; aThr = C[C@H](O)[C@H](N)C(=O)O; Aib = CC(C)(N)C(=O)O
Hi! Could you send only the number? It should be in min, unit omitted.

CCc1cc(OC)ccc1-c1ccc(CC(NC(=O)[C@H](CC(=O)O)NC(=O)[C@H](CO)NC(=O)[C@@H](NC(=O)C(C)(Cc2ccccc2F)NC(=O)[C@@H](NC(=O)CNC(=O)[C@H](CC(C(F)(F)F)C(F)(F)F)NC(=O)C(C)(C)NC(=O)[C@H](Cc2c[nH]cn2)NC(C)=O)[C@@H](C)O)[C@@H](C)O)C(=O)NC(CCCc2ccccc2)C(N)=O)cc1 (single isomer, unassigned) [compound 210]    30

Query string: Complete the entry with half-life at 2 μM for CCc1cc(OC)ccc1-c1ccc(CC(CNC(CCCc2ccccc2F)C(N)=O)NC(=O)[C@H](CC(=O)O)NC(=O)[C@H](CO)NC(=O)[C@@H](NC(=O)C(C)(Cc2ccccc2F)NC(=O)[C@@H](NC(=O)CNC(=O)[C@H](CC(C(F)(F)F)C(F)(F)F)NC(=O)C(C)(C)NC(=O)[C@@H](N)Cc2c[nH]cn2)[C@H](C)O)[C@H](C)O)cc1 (stereo partly drawn) [compound 214] (H-H[Aib][Leu(5,5,5,5',5',5'-F6)]G[aThr][ξαMePhe(2-F)][aThr]SD-X4)
Result string: 30

###

targetOrSystem: DPP IV (Homo sapiens, UniProt P27487)
Sequence (P27487 whole entry, species assumed): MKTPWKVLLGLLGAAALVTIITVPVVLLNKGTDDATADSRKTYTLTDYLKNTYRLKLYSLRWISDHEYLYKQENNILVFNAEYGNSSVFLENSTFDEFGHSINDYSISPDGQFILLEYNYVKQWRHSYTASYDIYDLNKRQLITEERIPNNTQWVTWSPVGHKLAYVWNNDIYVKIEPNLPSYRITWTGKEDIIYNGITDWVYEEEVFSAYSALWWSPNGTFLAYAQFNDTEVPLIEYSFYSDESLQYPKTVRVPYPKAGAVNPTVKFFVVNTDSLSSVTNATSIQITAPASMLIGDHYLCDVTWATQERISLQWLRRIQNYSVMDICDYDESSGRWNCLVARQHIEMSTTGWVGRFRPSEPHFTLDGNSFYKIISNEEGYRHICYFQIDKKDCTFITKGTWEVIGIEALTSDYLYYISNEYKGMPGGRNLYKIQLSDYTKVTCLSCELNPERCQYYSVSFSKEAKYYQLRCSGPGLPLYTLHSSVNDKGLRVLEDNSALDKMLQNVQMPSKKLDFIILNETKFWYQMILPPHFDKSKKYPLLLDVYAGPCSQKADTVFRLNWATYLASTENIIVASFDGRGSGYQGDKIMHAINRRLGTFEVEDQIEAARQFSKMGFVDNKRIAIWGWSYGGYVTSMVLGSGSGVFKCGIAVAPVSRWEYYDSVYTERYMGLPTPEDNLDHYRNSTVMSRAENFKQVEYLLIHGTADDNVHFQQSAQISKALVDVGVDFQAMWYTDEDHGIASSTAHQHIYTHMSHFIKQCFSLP
procedureText: Stability against DPP IV enzyme
Type: in vitro ADME
assayConditions: 2 μM peptidomimetic, 37° C., 24 h
Starred links: 1 amine or outer side, 2 acyl side, 3 side chain; linkers in the order of their positions; H or OH if unused. Non-standard residues stand in square brackets, D forms with d. Residues, ends and D or L forms follow the SMILES beside them. ξ: configuration not given here. ξBip(2'-Et-4'-OMe) = CCc1cc(OC)ccc1-c1ccc(CC(N)C(=O)O)cc1; X2 = O=C(C(CCCc1ccccc1Cl)N[*:1])[*:2]; Ac3c = NC1(C(=O)O)CC1
propertyName: % degradation of peptidomimetics in 24 h when incubated with DPP-IV enzyme (%)
Hi! Could you send only the number? It should be in %, unit omitted.

CCc1cc(OC)ccc1-c1ccc(CC(NC(=O)[C@H](CC(=O)O)NC(=O)[C@H](CO)NC(=O)[C@@H](NC(=O)[C@H](Cc2ccccc2)NC(=O)[C@@H](NC(=O)CNC(=O)[C@H](CCC(N)=O)NC(=O)C2(NC(=O)[C@@H](N)Cc3c[nH]cn3)CC2)[C@@H](C)O)[C@@H](C)O)C(=O)NC(CCCc2ccccc2Cl)C(N)=O)cc1 (stereo partly drawn) [compound 74] (H-H[Ac3c]QGTFTSD[ξBip(2'-Et-4'-OMe)][X2]-NH2)    76
CCc1cc(OC)ccc1-c1ccc(CC(CNC(CCCc2ccccc2)C(N)=O)NC(=O)[C@H](CC(=O)O)NC(=O)[C@H](CO)NC(=O)[C@@H](NC(=O)C(C)(Cc2ccccc2F)NC(=O)[C@@H](NC(=O)CNC(=O)[C@H](CC(C(F)(F)F)C(F)(F)F)NC(=O)C(C)(C)NC(=O)[C@@H](N)Cc2c[nH]cn2)[C@H](C)O)[C@H](C)O)cc1 (stereo partly drawn)    00
CCc1cc(OC)ccc1-c1ccc(CC(NC(=O)[C@H](CC(=O)O)NC(=O)[C@H](CO)NC(=O)[C@@H](NC(=O)[C@H](Cc2ccccc2)NC(=O)[C@@H](NC(=O)CNC(=O)[C@H](CCC(N)=O)NC(=O)[C@H](CO)NC(=O)[C@@H](N)Cc2c[nH]cn2)[C@@H](C)O)[C@@H](C)O)C(=O)NC(CCCc2ccccc2C(F)(F)F)C(N)=O)cc1 (single isomer, unassigned)    76
CCc1cc(OC)ccc1-c1ccc(CC(NC(=O)[C@H](CC(=O)O)NC(=O)[C@H](CO)NC(=O)[C@@H](NC(=O)[C@H](Cc2ccccc2)NC(=O)[C@@H](NC(=O)CNC(=O)[C@H](CCC(N)=O)NC(=O)C2(NC(=O)[C@@H](N)Cc3c[nH]cn3)CC2)[C@@H](C)O)[C@@H](C)O)C(=O)NC(CCCc2ccc(F)cc2F)C(N)=O)cc1 (single isomer, unassigned)    70
CCc1cc(OC)ccc1-c1ccc(CC(NC(=O)[C@H](CC(=O)O)NC(=O)[C@H](CO)NC(=O)[C@@H](NC(=O)[C@H](Cc2ccccc2)NC(=O)[C@@H](NC(=O)CNC(=O)C(CCC#N)NC(=O)C(C)(C)NC(=O)[C@@H](N)Cc2c[nH]cn2)[C@@H](C)O)[C@@H](C)O)C(=O)NC(CCCc2cc(C)cc(C)c2)C(N)=O)cc1 (single isomer, unassigned)    00

Query string: Complete the entry with % degradation of peptidomimetics in 24 h when incubated with DPP-IV enzyme for CCc1cc(OC)ccc1-c1ccc(CC(NC(=O)[C@H](CC(=O)O)NC(=O)[C@H](CO)NC(=O)[C@@H](NC(=O)[C@H](Cc2ccccc2)NC(=O)[C@@H](NC(=O)CNC(=O)C(CCC#N)NC(=O)C(C)(C)NC(=O)[C@@H](N)Cc2c[nH]cn2)[C@@H](C)O)[C@@H](C)O)C(=O)NC(CCCc2ccc(C(F)(F)F)cc2F)C(N)=O)cc1 (single isomer, unassigned)
Result string: 00
